biological target: Inosine-5'-monophosphate dehydrogenase 2 (Homo sapiens)
Kindly state pKi for each of the entries shown.
Numbers only, as −log10 of the molar value.

COc1c(C)c2c(c(O)c1CCNS(=O)(=O)CS(=O)(=O)NC[C@H]1O[C@@H](n3cnc4c(N)nc(-c5ccccc5)nc43)[C@H](O)[C@@H]1O)C(=O)OC2 = 6.51

Report pKi for each item below.
1. C#Cc1nc(N)c2ncn([C@@H]3O[C@H](CNS(=O)(=O)CS(=O)(=O)NCCc4c(O)c5c(c(C)c4OC)COC5=O)[C@@H](O)[C@H]3O)c2n1
2. COc1c(C)c2c(c(O)c1CCNS(=O)(=O)CS(N)(=O)=O)C(=O)OC2 [MYCOPHENOLIC BIS(SULFONAMIDE)]

[out]
6.74
5.40

* * *

Measured Ki on Inosine-5'-monophosphate dehydrogenase 1 (Homo sapiens) follows.
Sequence (P20839 whole entry): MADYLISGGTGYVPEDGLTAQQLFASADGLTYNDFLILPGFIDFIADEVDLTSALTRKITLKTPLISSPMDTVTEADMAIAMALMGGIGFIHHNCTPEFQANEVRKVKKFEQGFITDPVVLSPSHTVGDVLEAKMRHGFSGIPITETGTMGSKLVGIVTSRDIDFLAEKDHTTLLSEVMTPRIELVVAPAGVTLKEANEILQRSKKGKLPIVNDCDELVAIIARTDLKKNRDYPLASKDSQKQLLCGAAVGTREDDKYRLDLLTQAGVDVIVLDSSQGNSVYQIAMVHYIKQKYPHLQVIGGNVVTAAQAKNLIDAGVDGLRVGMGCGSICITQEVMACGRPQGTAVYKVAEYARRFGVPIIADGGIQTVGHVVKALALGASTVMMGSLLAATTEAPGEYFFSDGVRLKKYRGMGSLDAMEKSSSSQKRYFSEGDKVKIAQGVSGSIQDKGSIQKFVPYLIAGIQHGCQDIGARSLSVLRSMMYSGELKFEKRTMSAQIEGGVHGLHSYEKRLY
One number for each entry, in µM.

Some compounds with recorded Ki:
COc1c(C)c2c(c(O)c1CCNS(=O)(=O)CS(N)(=O)=O)C(=O)OC2 [MYCOPHENOLIC BIS(SULFONAMIDE)] = 18.2
CCc1nc(N)c2ncn([C@@H]3O[C@H](CNS(=O)(=O)CS(=O)(=O)NCCc4c(O)c5c(c(C)c4OC)COC5=O)[C@@H](O)[C@H]3O)c2n1 = 0.82

[in] Provide measured Ki value, entry: COc1c(C)c2c(c(O)c1CCO)C(=O)OC2
[out] 15.4
